# System: Erythrocyte
# test_method_notes: Haemolytic activity in human erythrocytes assessed as lowest concentration causing 5% hemolysis after 1 hr
# Format: ADME, cell-based
Where a SMILES comes first, the peptide text is derived from it.
observable: MHC

Query: Give the reported MHC for this molecule. CC(C)C[C@H](NC(=O)[C@H](CCCNC(=N)N)NC(=O)[C@H](Cc1c[nH]c2ccccc12)NC(=O)[C@H](CCCNC(=N)N)NC(=O)[C@@H](NC(=O)[C@H](Cc1c[nH]c2ccccc12)NC(=O)[C@H](Cc1c[nH]c2ccccc12)NC(=O)[C@H](CCCNC(=N)N)NC(=O)[C@H](CC(C)C)NC(=O)[C@H](CCCNC(=N)N)NC(=O)[C@@H](N)CCCNC(=N)N)[C@@H](C)O)C(=O)N[C@@H](CCCCN)C(N)=O (H-RRLRWWTRWRLK-NH2)
Reply: > 128 µM

Query: Could you please provide reported MHC for CC(C)C[C@H](NC(=O)[C@H](CCCNC(=N)N)NC(=O)[C@H](Cc1c[nH]c2ccccc12)NC(=O)[C@H](CCCNC(=N)N)NC(=O)[C@@H](NC(=O)[C@H](CCCNC(=N)N)NC(=O)[C@H](Cc1c[nH]c2ccccc12)NC(=O)[C@H](CCCNC(=N)N)NC(=O)[C@H](CC(C)C)NC(=O)[C@H](CCCNC(=N)N)NC(=O)[C@@H](N)Cc1c[nH]c2ccccc12)[C@@H](C)O)C(=O)N[C@@H](CCCNC(=N)N)C(N)=O (H-WRLRWRTRWRLR-NH2) ? Thanks!
Reply: > 128 µM

Further cases:
Query: Identify the reported MHC for the following entry. CC(C)C[C@H](NC(=O)[C@H](CCCNC(=N)N)NC(=O)[C@H](Cc1c[nH]c2ccccc12)NC(=O)[C@H](CCCNC(=N)N)NC(=O)[C@@H](NC(=O)[C@H](CCCCN)NC(=O)[C@H](Cc1c[nH]c2ccccc12)NC(=O)[C@H](CCCNC(=N)N)NC(=O)[C@H](CC(C)C)NC(=O)[C@H](Cc1c[nH]c2ccccc12)NC(=O)[C@@H](N)CCCNC(=N)N)[C@@H](C)O)C(=O)N[C@@H](CCCCN)C(N)=O (H-RWLRWKTRWRLK-NH2)
Reply: > 128 µM

---

# Tested on: Acinetobacter baumannii
# test_method_notes: Antibacterial activity against Acinetobacter baumannii AB1901 clinical isolate incubated for 18 to 24 hrs by broth microdilution method
# Assay type: functional
Where a SMILES comes first, the peptide text is derived from it.
Recorded log10(MIC), one value per entry.
Transform log10 | Measure MIC | Unit µM

Reference set, count: 3
Query: Using the record for CC(C)[C@H](NC(=O)[C@H](CCCCN)NC(=O)[C@H](Cc1c[nH]c2ccccc12)NC(=O)[C@H](CCCCN)NC(=O)[C@@H](NC(=O)[C@H](CCCCN)NC(=O)[C@H](Cc1c[nH]c2ccccc12)NC(=O)[C@H](CCCCN)NC(=O)[C@@H](NC(=O)[C@H](CCCCN)NC(=O)[C@@H](N)Cc1c[nH]c2ccccc12)C(C)C)C(C)C)C(=O)N[C@@H](CCCCN)C(N)=O (H-WKVKWKVKWKVK-NH2) , state its measured log10(MIC).
Reply: 0.30

Query: Hello, please tell me recorded log10(MIC) for this one: CN(C)c1ccc(O)c2c1C[C@H]1C[C@H]3[C@H](N(C)C)C(O)=C(C(N)=O)C(=O)[C@@]3(O)C(O)=C1C2=O
Reply: -0.60

Query: Consider the compound CC[C@H](C)[C@H](NC(=O)[C@H](CCCCN)NC(=O)[C@H](Cc1c[nH]c2ccccc12)NC(=O)[C@H](CCCCN)NC(=O)[C@@H](NC(=O)[C@H](CCCCN)NC(=O)[C@H](Cc1c[nH]c2ccccc12)NC(=O)[C@H](CCCCN)NC(=O)[C@@H](NC(=O)[C@H](CCCCN)NC(=O)[C@@H](N)Cc1c[nH]c2ccccc12)[C@@H](C)CC)[C@@H](C)CC)C(=O)N[C@@H](CCCCN)C(N)=O (H-WKIKWKIKWKIK-NH2) and give its recorded log10(MIC).
Reply: 0.00

Next compound, log10(MIC) to be filled in.
Query: Quick one: give measured log10(MIC) for C[C@@H](O)[C@H](NC(=O)[C@H](CCCCN)NC(=O)[C@H](Cc1c[nH]c2ccccc12)NC(=O)[C@H](CCCNC(=N)N)NC(=O)[C@H](Cc1ccccc1)NC(=O)[C@H](CCCNC(=N)N)NC(=O)[C@@H](N)Cc1c[nH]c2ccccc12)C(=O)N[C@@H](CCCNC(=N)N)C(=O)N[C@@H](Cc1c[nH]c2ccccc12)C(=O)N[C@@H](CCCNC(=N)N)C(=O)N[C@@H](Cc1ccccc1)C(=O)N[C@@H](CCCCN)C(N)=O (H-WRFRWKTRWRFK-NH2)
Reply: 0.30

---

# test_method_notes: Cytotoxicity against mouse RAW264.7 cells assessed as cell survival at <= 32 uM after 24 hrs by MTT assay relative to control
# Format: cell-based
# details: RAW264.7 cells, up to 32 µM, read-out: Activity
Where a SMILES comes first, the peptide text is derived from it.
observable: viability at 24 h

Query: Retrieve viability at 24 h measured for CC(C)C[C@H](NC(=O)[C@H](CCCNC(=N)N)NC(=O)[C@H](Cc1c[nH]c2ccccc12)NC(=O)[C@H](CCCNC(=N)N)NC(=O)[C@@H](NC(=O)[C@H](Cc1c[nH]c2ccccc12)NC(=O)[C@H](Cc1c[nH]c2ccccc12)NC(=O)[C@H](CCCNC(=N)N)NC(=O)[C@H](CC(C)C)NC(=O)[C@H](CCCNC(=N)N)NC(=O)[C@@H](N)CCCNC(=N)N)[C@@H](C)O)C(=O)N[C@@H](CCCCN)C(N)=O (H-RRLRWWTRWRLK-NH2) and print it.
Reply: ≥ 70%

---
Query: Retrieve viability at 24 h measured for CC(C)C[C@H](NC(=O)[C@H](CCCNC(=N)N)NC(=O)[C@@H](NC(=O)[C@H](CCCNC(=N)N)NC(=O)[C@@H](NC(=O)[C@H](CCCCN)NC(=O)[C@@H](NC(=O)[C@H](CCCNC(=N)N)NC(=O)[C@H](CC(C)C)NC(=O)[C@H](CCCNC(=N)N)NC(=O)[C@@H](N)C(C)C)C(C)C)[C@@H](C)O)C(C)C)C(=O)N[C@@H](CCCCN)C(N)=O (H-VRLRVKTRVRLK-NH2) and print it.
Reply: ≥ 70%

Query: Using the record for CC(C)C[C@H](NC(=O)[C@H](CCCNC(=N)N)NC(=O)[C@H](CC(C)C)NC(=O)[C@H](CCCNC(=N)N)NC(=O)[C@@H](NC(=O)[C@H](CCCCN)NC(=O)[C@H](CC(C)C)NC(=O)[C@H](CCCNC(=N)N)NC(=O)[C@H](CC(C)C)NC(=O)[C@H](CCCNC(=N)N)NC(=O)[C@@H](N)CC(C)C)[C@@H](C)O)C(=O)N[C@@H](CCCCN)C(N)=O (H-LRLRLKTRLRLK-NH2) , state its measured viability at 24 h.
Reply: ≥ 70%

---

# System: Escherichia coli
# test_method_notes: Antibacterial activity against Escherichia coli ATCC 25922 incubated for 18 to 24 hrs by broth microdilution method
# Type: functional
Where a SMILES comes first, the peptide text is derived from it.
observable: MIC (µM)
Only the number, expressed in µM, is required.

# example entries with known answers
Query: With Escherichia coli as the test system, provide measured MIC for this compound: CC(C)C[C@H](NC(=O)[C@H](CCCNC(=N)N)NC(=O)[C@H](Cc1c[nH]c2ccccc12)NC(=O)[C@H](CCCNC(=N)N)NC(=O)[C@@H](NC(=O)[C@H](CCCNC(=N)N)NC(=O)[C@H](Cc1c[nH]c2ccccc12)NC(=O)[C@H](CCCNC(=N)N)NC(=O)[C@H](CC(C)C)NC(=O)[C@H](CCCNC(=N)N)NC(=O)[C@@H](N)Cc1c[nH]c2ccccc12)[C@@H](C)O)C(=O)N[C@@H](CCCNC(=N)N)C(N)=O (H-WRLRWRTRWRLR-NH2)
Reply: 4

Query: Identify measured MIC obtained with Escherichia coli for CC(C)C[C@H](NC(=O)[C@H](CCCNC(=N)N)NC(=O)[C@H](CCCCN)NC(=O)[C@H](Cc1c[nH]c2ccccc12)NC(=O)[C@@H](NC(=O)[C@H](CCCCN)NC(=O)[C@H](CCCCN)NC(=O)[C@H](Cc1c[nH]c2ccccc12)NC(=O)[C@H](CC(C)C)NC(=O)[C@H](CCCNC(=N)N)NC(=O)[C@@H](N)CCCNC(=N)N)[C@@H](C)O)C(=O)N[C@@H](Cc1c[nH]c2ccccc12)C(N)=O (H-RRLWKKTWKRLW-NH2) .
Reply: 4

Query: # return MIC for CC(C)C[C@H](NC(=O)[C@H](CCCNC(=N)N)NC(=O)[C@H](Cc1c[nH]c2ccccc12)NC(=O)[C@H](CCCNC(=N)N)NC(=O)[C@@H](NC(=O)[C@H](CCCCN)NC(=O)[C@H](Cc1c[nH]c2ccccc12)NC(=O)[C@H](CCCNC(=N)N)NC(=O)[C@H](CC(C)C)NC(=O)[C@H](Cc1c[nH]c2ccccc12)NC(=O)[C@@H](N)CCCNC(=N)N)[C@@H](C)O)C(=O)N[C@@H](CCCCN)C(N)=O (H-RWLRWKTRWRLK-NH2) , test system: Escherichia coli
Reply: 2

Query: Give MIC for this entry on Escherichia coli: CCn1cc(C(=O)O)c(=O)c2cc(F)c(N3CCNCC3)cc21 [NORFLOXACIN]
Reply: 0.125

More entries:
Query: Give MIC only, for CC(C)C[C@H](NC(=O)[C@H](CCCNC(=N)N)NC(=O)[C@H](Cc1c[nH]c2ccccc12)NC(=O)[C@H](CCCNC(=N)N)NC(=O)[C@H](CC(C)C)NC(=O)[C@H](CCCNC(=N)N)NC(=O)[C@H](Cc1c[nH]c2ccccc12)NC(=O)[C@H](CCCNC(=N)N)NC(=O)[C@H](CC(C)C)NC(=O)[C@H](CCCNC(=N)N)NC(=O)[C@@H](N)Cc1c[nH]c2ccccc12)C(=O)N[C@@H](CCCNC(=N)N)C(N)=O (H-WRLRWRLRWRLR-NH2) , using Escherichia coli data.
Reply: 4

Query: Param request: MIC | system Escherichia coli | item CC[C@H](C)[C@H](NC(=O)[C@H](CCCCN)NC(=O)[C@H](Cc1c[nH]c2ccccc12)NC(=O)[C@H](CCCCN)NC(=O)[C@@H](NC(=O)[C@H](CCCCN)NC(=O)[C@H](Cc1c[nH]c2ccccc12)NC(=O)[C@H](CCCCN)NC(=O)[C@@H](NC(=O)[C@H](CCCCN)NC(=O)[C@@H](N)Cc1c[nH]c2ccccc12)[C@@H](C)CC)[C@@H](C)CC)C(=O)N[C@@H](CCCCN)C(N)=O (H-WKIKWKIKWKIK-NH2)
Reply: 2
